Values were extracted from patent US9340577B2.

- subject_of_test: A*3301 (Homo sapiens, UniProt P04439, A270S/D185E/E176V/E277Q/E87N/F33T/G231S/H175R/I121M/I218V/I322F/K168Q/K210R/L300P/L318F/M331R/P217A/Q86R/Q94H/R138Q/T323A/T345S/T97I/V358M/Y195H)
- test_name: biochemical
- Assay type: binding
pIC50: −log10 of the molar value. No end group written: not given here.
# binning rule on pIC50: low band = under 5, middle band = from 5 up to 7, high band = 7 and over

seq_string	answer_label
GVSIEWRKRR [Peptide 9017.0221]	middle band
MTYVAWDSVY [Peptide 1589.07]	low band
SVAALYWYR [Peptide 88.0341]	high band
VVYRDSIPH [Peptide 78.0275]	low band
IVYRDNNPY [Peptide 78.0292]	low band
STVSVGTAK [Peptide 1589.09]	low band
KLCLRFLSK [Peptide 1571.20]	low band
FIHFRIGCR [Peptide 9017.0112]	high band
NSNASAFLK [Peptide 1587.07]	middle band
GSLQYLALK [Peptide 9017.0096]	low band
ATNKMFCQLAK [Peptide 1556.47]	low band
